tested on: cancer cells; assay: MTT cytotoxic assay of esterification products (Cytotoxicity activity); type: cell-based, human; conditions: MTT cytotoxic assay, isolated esterification products of E4A

- molecule: "CCCCCC(=O)OC1C(OC(=O)CCCCC)C2(CO)C(O)CC3(C)C(=CCC4C5(C)CCC(O)C(C)(CO)C5CCC43C)C2CC1(C)C (stereo not shown) [Compound D24]"
  Cytotoxicity activity: "moderate"
- molecule: "CCCCCC(=O)OCC1(C)C(OC(=O)CCCCC)CCC2(C)C1CCC1(C)C2CC=C2C3CC(C)(C)C(O)C(O)C3(CO)C(O)CC21C (stereo not shown) [Compound D31]"
  Cytotoxicity activity: "moderate"
- molecule: "C=CCCC(=O)OCC1(C)C(OC(=O)CCC=C)CCC2(C)C1CCC1(C)C2CC=C2C3CC(C)(C)C(OC(=O)CCC=C)C(O)C3(COC(=O)CCC=C)C(O)CC21C (stereo not shown) [Compound C11]"
  Cytotoxicity activity: "weak"
- molecule: "CCC(CC)C(=O)OCC1(C)C(OC(=O)C(CC)CC)CCC2(C)C1CCC1(C)C2CC=C2C3CC(C)(C)C(OC(=O)C(CC)CC)C(OC(=O)C(CC)CC)C3(COC(=O)C(CC)CC)C(OC(=O)C(CC)CC)CC21C (stereo not shown) [Compound E19]"
  Cytotoxicity activity: "none"

* * *

tested on: cancer cells; experiment: MTT cytotoxic assay of esterification products (Cytotoxicity activity); format: cell-based, human; settings: esterification products isolated with HPLC; graded strong / moderate / weak
assay metric: Cytotoxicity activity

Some entries whose results are on file:
- molecule: "CC=C(C)C(=O)OCC1(C)C(OC(=O)C=Cc2ccccc2)CCC2(C)C1CCC1(C)C2CC=C2C3CC(C)(C)C(O)C(O)C3(COC(=O)C=Cc3ccccc3)C(O)CC21C (stereo not shown)"
  Cytotoxicity activity: "moderate"
- molecule: "CC=C(C)C(=O)OCC1(C)C(OC(=O)C(C)=CC)CCC2(C)C1CCC1(C)C2CC=C2C3CC(C)(C)C(O)C(O)C3(COC(=O)C(C)=CC)C(O)CC21C (stereo not shown)"
  Cytotoxicity activity: "moderate"
- molecule: "CC=C(C)C(=O)OCC1(C)C(OC(=O)C=C(C)C)CCC2(C)C1CCC1(C)C2CC=C2C3CC(C)(C)C(O)C(O)C3(COC(=O)C(C)=CC)C(O)CC21C (stereo not shown)"
  Cytotoxicity activity: "moderate"
- molecule: "CC=CC(=O)OC1C(O)C2(CO)C(O)CC3(C)C(=CCC4C5(C)CCC(O)C(C)(COC(=O)C(C)=CC)C5CCC43C)C2CC1(C)C (stereo not shown)"
  Cytotoxicity activity: "moderate"
- molecule: "CC=C(C)C(=O)OCC1(C)C(O)CCC2(C)C1CCC1(C)C2CC=C2C3CC(C)(C)C(OC(=O)C(C)=CC)C(OC(=O)C(C)=CC)C3(COC(=O)C(C)=CC)C(O)CC21C (stereo not shown)"
  Cytotoxicity activity: "weak"

Below are some molecules; for each one, tell me its Cytotoxicity activity.
1. CC=C(C)C(=O)OCC1(C)C(O)CCC2(C)C1CCC1(C)C2CC=C2C3CC(C)(C)C(O)C(OC(=O)C(CC)CC)C3(CO)C(O)CC21C (stereo not shown)
2. CC=C(C)C(=O)OCC1(C)C(O)CCC2(C)C1CCC1(C)C2CC=C2C3CC(C)(C)C(O)C(OC(=O)C(C)=CC)C3(COC(=O)C(C)=CC)C(O)CC21C (stereo not shown)
3. CC=C(C)C(=O)OCC1(C)C(O)CCC2(C)C1CCC1(C)C2CC=C2C3CC(C)(C)C(OC(=O)C=Cc4ccccc4)C(OC(=O)C=Cc4ccccc4)C3(COC(=O)C(C)=CC)C(O)CC21C (stereo not shown)
4. CC=C(C)C(=O)OCC1(C)C(O)CCC2(C)C1CCC1(C)C2CC=C2C3CC(C)(C)C(OC(=O)C(CC)CC)C(O)C3(COC(=O)C(C)=CC)C(O)CC21C (stereo not shown)
5. CC=C(C)C(=O)OCC1(C)C(O)CCC2(C)C1CCC1(C)C2CC=C2C3CC(C)(C)C(OC(C)=O)C(O)C3(COC(C)=O)C(O)CC21C (stereo not shown)
6. CC=C(C)C(=O)OCC1(C)C(OC(=O)C=Cc2ccccc2)CCC2(C)C1CCC1(C)C2CC=C2C3CC(C)(C)C(OC(=O)C=Cc4ccccc4)C(O)C3(COC(=O)C(C)=CC)C(O)CC21C (stereo not shown)

### Response
moderate
moderate
weak
moderate
moderate
weak

For each of the molecules below, note its Cytotoxicity activity.
1. C=CCCC(=O)OCC12C(O)CC3(C)C(=CCC4C5(C)CCC(OC(=O)CCC=C)C(C)(COC(=O)C(C)=CC)C5CCC43C)C1CC(C)(C)C(O)C2O (stereo not shown)
2. CC=C(C)C(=O)OCC1(C)C(O)CCC2(C)C1CCC1(C)C2CC=C2C3CC(C)(C)C(OC(C)=O)C(O)C3(COC(=O)C(C)=CC)C(O)CC21C (stereo not shown)
3. CC=C(C)C(=O)OCC1(C)C(OC(=O)C(CC)CC)CCC2(C)C1CCC1(C)C2CC=C2C3CC(C)(C)C(OC(=O)C(CC)CC)C(O)C3(COC(=O)C(C)=CC)C(O)CC21C (stereo not shown)
4. CC=CC(=O)OC1C(O)C2(COC(=O)C(C)=CC)C(O)CC3(C)C(=CCC4C5(C)CCC(OC(=O)C=CC)C(C)(COC(=O)C(C)=CC)C5CCC43C)C2CC1(C)C (stereo not shown)

### Response
1: moderate; 2: moderate; 3: weak; 4: weak
